assay: Cation binding constant (log KS) for K+ in anhydrous methanol at 25° C.; details: decadic (log10) logarithm of equilibrium constant lariat ether + cation = complex
Endpoint Name: Cation Binding Constants (log KS), K^+

Answered cases to consult:
CC(C)CCC[C@@H](C)[C@H]1CC[C@H]2[C@@H]3CC=C4C[C@@H](OC(=O)CN5CCOCCOCCOCCOCC5)CC[C@]4(C)[C@H]3CC[C@]12C [Compound 4, Cholesteryl (4-aza-15-crown-5)acetate]
4.03
CC(C)CCC[C@@H](C)[C@H]1CC[C@H]2[C@@H]3CC=C4C[C@@H](OC(=O)N5CCOCCOCCOCCOCCOCC5)CC[C@]4(C)[C@H]3CC[C@]12C
1.78

Kindly note the recorded Cation Binding Constants (log KS), K^+ for CC(C)CCC[C@@H](C)[C@H]1CC[C@H]2[C@@H]3CC[C@H]4C[C@@H](OC(=O)CN5CCOCCOCCOCCOCC5)CC[C@]4(C)[C@H]3CC[C@]12C [Compound 6, Cholestanyl (4-aza-15-crown-5) acetate] , which is 4.03

Kindly note the recorded Cation Binding Constants (log KS), K^+ for CC(C)CCC[C@@H](C)[C@H]1CC[C@H]2[C@@H]3CC=C4C[C@@H](OC(=O)N5CCOCCOCCOCCOCC5)CC[C@]4(C)[C@H]3CC[C@]12C , which is < 1.5

Kindly note the recorded Cation Binding Constants (log KS), K^+ for CC(C)CCC[C@@H](C)[C@H]1CC[C@H]2[C@@H]3CC=C4C[C@@H](OC(=O)CN5CCOCCOCCOCCOCCOCC5)CC[C@]4(C)[C@H]3CC[C@]12C [Compound 5, Cholesteryl (4-aza-18-crown-6) acetate] , which is 5.75
